Target entity: T1, 4H3277-bH
T1 chain: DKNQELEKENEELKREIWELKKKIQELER
Measurement notes: two-hybrid library CCNG1;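 further: natural log of median RNA to DNA barcode read ratio; higher means stronger binding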
Classification field: enter Fulfilled for interaction score values not below -0.1, Not fulfilled for values below it.

[ask] Check if interaction score >= -0.1 (inclusive). Item: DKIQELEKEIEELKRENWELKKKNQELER [4H2143-bH]
[reply] Not fulfilled

[ask] Does interaction score meet or surpass -0.1 for DKIQELKKEIEELERENWELKKENQELKR [4H2588-bH] ?
[reply] Not fulfilled

[ask] Hi team, for DENQELKKEIEELEREIWELEKKNQELKR [4H1544-bH] , is the recorded interaction score at or above -0.1?
[reply] Fulfilled

[ask] Quick check, interaction score >= -0.1? DKNQELEKEIEELKRKIWELEKKNQELER [4H3175-bH]
[reply] Fulfilled

[ask] Does the binder DKIQELEKKNEELKREIWELEKKNQELER [4H2503-bH] have recorded interaction score that is -0.1 or more?
[reply] Not fulfilled

[ask] Reported interaction score reaches at least -0.1 for DENQELEKKIEELKREIWELEKENQELKR [4H1348-bH] ?
[reply] Not fulfilled

[ask] Could you verify whether the entry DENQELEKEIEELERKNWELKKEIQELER [4H1081-bH] shows interaction score of no less than -0.1?
[reply] Not fulfilled
